Value source: paper PMC9482650

- systemUnderTest: T1, PDZD7_3, Q9H5P4
- T1 sequence (Q9H5P4 857-944, limits assumed, looked up): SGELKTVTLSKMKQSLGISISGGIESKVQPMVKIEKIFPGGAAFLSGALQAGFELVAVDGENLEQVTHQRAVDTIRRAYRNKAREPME
- procedureSummary: holdup assay
- Set-up: key: below the threshold = too weak to quantify, mostly under pKd 3.1 to 4
- runParameters: plain residues with an end cap or a label only (N-terminal biotin on a linker: ttds)
The binders listed here are annotated with their pKd.
Provide a numeric answer; units are not to be included.

binder: SSLQSLETSV [ATP2B4, P23634]
pKd: 4.48
//
binder: EVVHTPETSV [SLC16A3, O15427]
pKd: 4.45

What does the data say about its pKd? Entry: RHTTSTETAV [HPV30-E6, P36809] 4.1
